Provenance of the data: patent US20180251495A1

Entries and their Skin permeation, SC + Epidermis
- experiment.description: In vitro skin permeation of radiolabelled SPPs in Franz diffusion cells
- Format: in vitro ADME, porcine
- condition.description: peptide amount after 24 hours, 37° C.
Where a SMILES comes first, the peptide text is derived from it. Bridges are numbered along the chain shown (N, C = ends).
measured.metric: Skin permeation, SC + Epidermis (μg/cm^2)

>>> experimental_result("C[C@H](N)C(=O)N[C@H]1CSSC[C@@H](C(=O)NCC(=O)O)NC(=O)[C@H](C)NC(=O)[C@H](CC(N)=O)NC(=O)[C@H](CCCNC(=N)N)NC(=O)CNC(=O)[C@H]([C@@H](C)O)NC(=O)[C@H](CO)NC(=O)[C@H]([C@@H](C)O)NC1=O [SP7-4, ACTSTGRNACG] (H-ACTSTGRNACG-OH; disulfide 2-10; N-terminus and C-terminus assumed)")
545.2
>>> experimental_result("CC(C)C[C@@H]1NC(=O)[C@H]([C@@H](C)O)NC(=O)[C@H](C)NC(=O)[C@H](CO)NC(=O)[C@@H](NC(=O)[C@H](C)N)CSSC[C@@H](C(=O)NCC(=O)O)NC(=O)[C@H](CO)NC(=O)[C@H](Cc2c[nH]cn2)NC(=O)[C@H](CCC(N)=O)NC1=O [SP7-1, ACSATLQHSCG] (H-ACSATLQHSCG-OH; disulfide 2-10; N-terminus and C-terminus assumed)")
819.2

====

- experiment.description: In vitro skin permeation of radiolabelled SPPs in Franz diffusion cells
- Format: in vitro ADME, porcine
- condition.description: peptide amount after 24 hours, 37° C.
Where a SMILES comes first, the peptide text is derived from it. Bridges are numbered along the chain shown (N, C = ends).
Entries and their Skin permeation, SC + Epidermis
measured.metric: Skin permeation, SC + Epidermis (μg/cm^2)

>>> experimental_result("CC(C)C[C@@H]1NC(=O)[C@H](CO)NC(=O)[C@@H](NC(=O)[C@H](C)N)CSSC[C@@H](C(=O)NCC(=O)O)NC(=O)[C@H](CC(N)=O)NC(=O)[C@H](Cc2c[nH]c3ccccc23)NC(=O)[C@H](CC(N)=O)NC(=O)[C@H](C(C)C)NC(=O)[C@H]([C@@H](C)O)NC1=O [SP7-2, ACSLTVNWNCG] (H-ACSLTVNWNCG-OH; disulfide 2-10; N-terminus and C-terminus assumed)")
774.0
>>> experimental_result("C[C@H](N)C(=O)N[C@H]1CSSC[C@@H](C(=O)NCC(=O)O)NC(=O)[C@H](CC(N)=O)NC(=O)[C@H](Cc2c[nH]cn2)NC(=O)[C@H](CC(N)=O)NC(=O)[C@H]([C@@H](C)O)NC(=O)[C@H](CO)NC(=O)[C@H](C)NC(=O)[C@H](CO)NC1=O [SP7-5, ACSASTNHNCG] (H-ACSASTNHNCG-OH; disulfide 2-10; N-terminus and C-terminus assumed)")
759.9
>>> experimental_result("CC(C)C[C@@H]1NC(=O)[C@@H](NC(=O)[C@H](C)N)CSSC[C@@H](C(=O)NCC(=O)O)NC(=O)[C@H](C)NC(=O)[C@H](CC(N)=O)NC(=O)[C@H](Cc2c[nH]cn2)NC(=O)[C@H](CC(N)=O)NC(=O)[C@H](C(C)C)NC(=O)[C@H](CO)NC1=O [SP7-3, ACLSVNHNACG] (H-ACLSVNHNACG-OH; disulfide 2-10; N-terminus and C-terminus assumed)")
759.9

====

- Tested on: HEKa cells (human adult epidermal keratinocytes)
- experiment.description: MTT cytotoxicity assessment in keratinocytes
- Format: cell-based
- condition.description: overnight incubation, MTT
Where a SMILES comes first, the peptide text is derived from it. Bridges are numbered along the chain shown (N, C = ends).
measured.metric: toxicity to HEKa cells

>>> experimental_result("C[C@H](N)C(=O)N[C@H]1CSSC[C@@H](C(=O)NCC(=O)O)NC(=O)[C@H]([C@@H](C)O)NC(=O)[C@H](CO)NC(=O)[C@H](CCCNC(=N)N)NC(=O)[C@H](C)NC(=O)[C@H](CCC(N)=O)NC(=O)[C@H](Cc2c[nH]cn2)NC(=O)[C@H](C)NC(=O)[C@H](CC(N)=O)NC1=O [SP8-1, ACNAHQARSTCG] (H-ACNAHQARSTCG-OH; disulfide 2-11; N-terminus and C-terminus assumed)")
"no observable toxicity"
>>> experimental_result("C[C@H](N)C(=O)N[C@H]1CSSC[C@@H](C(=O)NCC(=O)O)NC(=O)[C@H](CC(N)=O)NC(=O)[C@H](CCCNC(=N)N)NC(=O)CNC(=O)[C@H]([C@@H](C)O)NC(=O)[C@H](Cc2c[nH]cn2)NC(=O)[C@H]([C@@H](C)O)NC1=O [SP6-1, ACTHTGRNCG] (H-ACTHTGRNCG-OH; disulfide 2-9; N-terminus and C-terminus assumed)")
"no observable toxicity"
